Target: Acetylcholinesterase (Electrophorus electricus) (UniProt O42275)
Sequence (O42275 24-633 limits assumed): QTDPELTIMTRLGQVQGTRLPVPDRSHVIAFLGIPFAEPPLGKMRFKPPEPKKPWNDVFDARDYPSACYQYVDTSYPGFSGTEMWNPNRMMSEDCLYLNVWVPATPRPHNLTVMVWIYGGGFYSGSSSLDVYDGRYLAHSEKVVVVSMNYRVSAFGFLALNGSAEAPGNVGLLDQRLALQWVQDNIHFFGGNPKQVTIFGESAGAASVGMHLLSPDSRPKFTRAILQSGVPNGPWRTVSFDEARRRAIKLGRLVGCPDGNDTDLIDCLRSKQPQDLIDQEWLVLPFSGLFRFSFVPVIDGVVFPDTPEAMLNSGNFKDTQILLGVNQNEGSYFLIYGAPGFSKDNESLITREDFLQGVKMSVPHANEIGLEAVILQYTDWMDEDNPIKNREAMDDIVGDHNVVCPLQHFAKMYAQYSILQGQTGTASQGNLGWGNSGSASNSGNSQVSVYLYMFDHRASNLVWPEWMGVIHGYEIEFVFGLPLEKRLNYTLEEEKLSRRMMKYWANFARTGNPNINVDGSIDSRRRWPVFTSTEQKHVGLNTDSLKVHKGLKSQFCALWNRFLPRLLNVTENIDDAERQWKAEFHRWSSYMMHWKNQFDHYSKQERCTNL
Conditions: at 2 mg/mL
Description: Inhibition of electric eel AChE at 2 mg/ml by Ellman's method
Param threshold (20%) applies to inhibition; output 1 when value >= threshold, -1 when value < threshold.

The following molecules have reported results that may help.
OC[C@@H]1CCCN2CCCC[C@H]12    -1
C=C1CC[C@H]2C(=C)CC[C@H]3C(=C)C(=O)O[C@@H]3[C@@H]12    -1
COc1cc2c3cc1Oc1cc(ccc1O)C[C@@H]1c4c(cc(OC)c(O)c4Oc4ccc(cc4)C[C@@H]3N(C)CC2)CC[N+]1(C)C    -1
COC(=O)C1=CCCN(C)C1    -1
C=C1C(=O)[C@]23[C@H](O)[C@H]1CC[C@H]2[C@@]12CO[C@]3(O)[C@@H](O)[C@@H]1C(C)(C)CC[C@@H]2O    1
COc1cccc2oc(-c3ccccc3)cc(=O)c12    1

Here is the next item to consider.
In: Test whether the molecule `COC[C@H]1OC(=O)c2coc3c2[C@@]1(C)C1=C(C3=O)[C@@H]2CCC(=O)[C@@]2(C)C[C@H]1OC(C)=O` records inhibition of 20% or higher.
Out: -1

* * *

Target: Acetylcholinesterase (Electrophorus electricus) (UniProt O42275)
Conditions: at 2 mg/mL
Experimental readout: inhibition (%)
Response body: numeric value in %, unit text excluded.

COc1cccc2c1C(=O)c1c(O)c3c(c(O)c1C2=O)C[C@@](O)(C(C)=O)C[C@@H]3O[C@H]1C[C@H](N)[C@H](O)[C@H](C)O1    18.1
CCCCC[C@H](O)/C=C/[C@H]1C=CC(=O)[C@@H]1CCCCCCC(=O)O    15.3
CN1CCc2cc(O)c(O)cc2C1Cc1ccc(O)c(O)c1 (stereo not given)    28.1
C[C@@]12CCc3occc3[C@H]1CC[C@@]13C[C@@H](CC[C@H]12)[C@@](O)(CO)C3    -1.43
COc1cc2c(cc1OC)[C@@]13CC[N+]4([O-])CC5=CCO[C@H]6CC(=O)N2[C@H]1[C@H]6[C@H]5C[C@@H]34 (stereo not given in full)    12.8
COc1cc2c(cc1CC=C(C)C)C(=O)C[C@@H](c1ccc(O)cc1)O2    23.2
C=C(C)[C@@H]1CC=C(C(=O)O)CC1    -3.9
CCCCCCCCCCCCCC(=O)O[C@@H]1[C@@H](C)[C@@]2(O)[C@@H](C=C(CO)C[C@]3(O)C(=O)C(C)=C[C@@H]23)[C@@H]2C(C)(C)[C@]12OC(C)=O    19.6

Known value: Acetylcholinesterase (Electrophorus electricus) (UniProt O42275) inhibition of the compound `O=C(/C=C/c1ccc(O)c(O)c1)OCCc1ccccc1` equals -8.88

Reading of inhibition for `COc1ccc(-c2coc3cc(O)cc(O)c3c2=O)cc1` with Acetylcholinesterase (Electrophorus electricus) (UniProt O42275): 2.29

* * *

Molecular target: Acetylcholinesterase (Electrophorus electricus) (UniProt O42275)
Details: at 2 mg/mL
Everything with inhibition lower than 20% is No; everything else, including exactly 20%, is Yes.

Worked examples, 3 molecules total:
O=C1c2c(O)cc(O)cc2O[C@H](c2ccc(O)c(O)c2)[C@H]1O    No
COc1c2ccoc2cc2oc(=O)ccc12    Yes
O=C1CCC[C@@H]2[C@H]3CCCN4CCC[C@@H](CN12)[C@@H]34    No

In: inhibition >= 20% for `CC(=O)O[C@H]1CC[C@]2(C=O)[C@H]3CC[C@]4(C)[C@@H](C5=CC(=O)OC5)CC[C@]4(O)[C@@H]3CC[C@]2(O)C1` ?
Out: No

In: Hi, just wondering whether `COc1cc(-c2oc3cc(O)cc(O)c3c(=O)c2O[C@@H]2O[C@H](CO)[C@@H](O)[C@H](O)[C@H]2O)ccc1O` shows inhibition of 20% or higher.
Out: Yes

In: Given the entry COc1cc2c3cc1Oc1c(OO)c(OC)cc4c1[C@H](Cc1ccc(cc1)Oc1cc(ccc1O)C[C@H]3N(C)CC2)N(C)CC4.O=S(=O)(O)O [OXYACANTHINE SULFATE] , answer whether its inhibition meets or surpasses 20%.
Out: No

In: Check the entry `Cc1cccc2c3c(ccc12)C1=C(C(=O)C3=O)[C@@H](C)CO1` : does inhibition equal or exceed 20%?
Out: No

In: For this molecule, is measured inhibition 20% or higher? `CC[C@H]1[C@@H]2C[C@H]3[C@@H]4N(C)c5ccccc5[C@]45C[C@@H]([C@@H]2[C@H]5O)N3[C@@H]1O`
Out: Yes

In: Tell me whether inhibition is at least 20% here: `O=c1cc(-c2ccc(O)cc2)oc2c(O[C@@H]3O[C@H](CO)[C@@H](O)[C@H](O)[C@H]3O)c(O)c(O[C@@H]3O[C@H](CO)[C@@H](O)[C@H](O)[C@H]3O)c(O)c12`
Out: Yes

In: Given `O=C(CCc1ccc(O)cc1)c1c(O)cc(O)cc1O` , state whether its inhibition is at least 20%.
Out: No
